Cited source for all entries: PubChem BioAssay AID1259353

# System: Trichuris muris adults ex vivo, motility imaging, 24 h
# ASSAY: Trichuris muris adult motility inhibition, dose response, whole organism, INVAPP motility imaging, 24 h (AID 1259353)
Here, each record is paired with measured pEC50 data.
Scale: negative log10 of molar concentration, which is what pEC50 denotes.

// pEC50 value for `COc1ccccc1CNc1nc(NCCOc2ccccc2Cl)c2sccc2n1` : 4.15

// pEC50 value for `CNc1nc(NCCOc2ccccc2Cl)c2sccc2n1` : 4.36

// pEC50 value for `CNc1nc(NCCOc2ccccc2)c2sccc2n1` : 4.55

// pEC50 value for `COCCNc1nc(NCCOc2ccccc2Cl)c2sccc2n1` : 4.59
